biological target: T1, MHC class I allele A*0201 monomer (human, biotinylated, bound to streptavidin-coated plate); test: iTopia, multiparametric iScore
T1 construct: also called A2; HLA-A2
Lab note - cut at 0.07 for iScore: t if strictly below, f if not.

Asked: Does this binder meet the criterion iScore < 0.07? RDACRDHME [5T4 9-mer peptide 195]
Given back: f

Asked: Does this binder meet the criterion iScore < 0.07? KVLHNGTLA [5T4 9-mer peptide 136]
Given back: f

Asked: Does this binder meet the criterion iScore < 0.07? ADMVTWLKE [5T4 9-mer peptide 152]
Given back: t

Asked: Does this binder meet the criterion iScore < 0.07? HMADMVTWL [5T4 9-mer peptide 151]
Given back: f

Asked: Does this binder meet the criterion iScore < 0.07? YVSFRNLTH [5T4 9-mer peptide 126]
Given back: t

Asked: Does this binder meet the criterion iScore < 0.07? LKETEVVQG [5T4 9-mer peptide 155]
Given back: t

Asked: Does this binder meet the criterion iScore < 0.07? SYVFLGIVL [5T4 9-mer peptide 178]
Given back: f

Asked: Does this binder meet the criterion iScore < 0.07? NRKGIKKWM [5T4 9-mer peptide 189]
Given back: f

Asked: Does this binder meet the criterion iScore < 0.07? VQGKDRLTC [5T4 9-mer peptide 158]
Given back: f

Asked: Does this binder meet the criterion iScore < 0.07? LQGLPHIRV [5T4 9-mer peptide 141]
Given back: f

Asked: Does this binder meet the criterion iScore < 0.07? YHYRYEINA [5T4 9-mer peptide 200]
Given back: t

Asked: Does this binder meet the criterion iScore < 0.07? VSLTYVSFR [5T4 9-mer peptide 124]
Given back: t

Asked: Does this binder meet the criterion iScore < 0.07? LEDNALKVL [5T4 9-mer peptide 133]
Given back: f

Asked: Does this binder meet the criterion iScore < 0.07? EVVQGKDRL [5T4 9-mer peptide 157]
Given back: f

Asked: Does this binder meet the criterion iScore < 0.07? PWVCDCHMA [5T4 9-mer peptide 148]
Given back: t

Asked: Does this binder meet the criterion iScore < 0.07? DNALKVLHN [5T4 9-mer peptide 134]
Given back: t

Asked: Does this binder meet the criterion iScore < 0.07? PHIRVFLDN [5T4 9-mer peptide 143]
Given back: t

Asked: Does this binder meet the criterion iScore < 0.07? IFLLVLYLN [5T4 9-mer peptide 185]
Given back: t

Asked: Does this binder meet the criterion iScore < 0.07? YEINADPRL [5T4 9-mer peptide 202]
Given back: f

Asked: Does this binder meet the criterion iScore < 0.07? VLLELNSAD [5T4 9-mer peptide 167]
Given back: f

Asked: Does this binder meet the criterion iScore < 0.07? LTCAYPEKM [5T4 9-mer peptide 161]
Given back: f

Asked: Does this binder meet the criterion iScore < 0.07? ESLHLEDNA [5T4 9-mer peptide 131]
Given back: t

Asked: Does this binder meet the criterion iScore < 0.07? ETEVVQGKD [5T4 9-mer peptide 156]
Given back: t

Asked: Does this binder meet the criterion iScore < 0.07? LHNGTLAEL [5T4 9-mer peptide 137]
Given back: f

Asked: Does this binder meet the criterion iScore < 0.07? PRLTNLSSN [5T4 9-mer peptide 205]
Given back: t

Asked: Does this binder meet the criterion iScore < 0.07? LDLSNNSLV [5T4 9-mer peptide 120]
Given back: f

Asked: Does this binder meet the criterion iScore < 0.07? ACRDHMEGY [5T4 9-mer peptide 196]
Given back: t

Asked: Does this binder meet the criterion iScore < 0.07? LTNLSSNSD [5T4 9-mer peptide 206]
Given back: t

Asked: Does this binder meet the criterion iScore < 0.07? GLPHIRVFL [5T4 9-mer peptide 142]
Given back: f

Asked: Does this binder meet the criterion iScore < 0.07? IKKWMHNIR [5T4 9-mer peptide 191]
Given back: f

Asked: Does this binder meet the criterion iScore < 0.07? LALIGAIFL [5T4 9-mer peptide 182]
Given back: f
